Assay: duplex melting temperature (HRM, EvaGreen); higher = more stable duplex
Conditions: duplex concentration 15 µM; backbone: PS-PO (listed strand fully phosphorothioate, complement phosphodiester)
Measurement type: duplex melting temperature
I'd appreciate it if you wrote the number followed by its unit.

Field: example entries. Status: answers known.
Request the reported duplex melting temperature associated with `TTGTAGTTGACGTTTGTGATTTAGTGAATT` 70.2 °C

Sample `GCGGTTGGTGGCCAAC` — what was its duplex melting temperature? 71.1 °C

Sample `GCTGTGAAACAATGTAG` — what was its duplex melting temperature? 60.2 °C

I would be grateful if you could share the reported duplex melting temperature for `GCAGGAGCCGCGACCTG` . 76.9 °C

Any idea what duplex melting temperature was measured for `TACTTCCAACGTAGG` ? 58.6 °C

Now, please, on to the next sequence.
Consider the sequence `TCTACACCGCGA` and give its measured duplex melting temperature. 61.7 °C

* * *

Parameter: duplex formation free energy ΔG50. Scope: all listed entries.
Test: duplex formation free energy ΔG50 (Van't Hoff fit of HRM Tm); higher = less stable duplex
Conditions: temperature for dG: 50 °C; NaCl: 500 mM (unadjusted); backbone: PS-PO (listed strand fully phosphorothioate, complement phosphodiester)
Express it in kcal/mol; write the number only.

Some solved cases for reference:
// lookup duplex formation free energy ΔG50 for `CTCAGAGTAGAGCCGA` -11.4

May I ask what duplex formation free energy ΔG50 has been recorded for `ACTGTATCGCCCTA` ? -10.2

Reported duplex formation free energy ΔG50, sequence `GAGCAGAAGGGGTTGT` : ____ -11.5

I'd like to know its duplex formation free energy ΔG50. The sequence in question is `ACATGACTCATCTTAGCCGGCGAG` -17.8

Look up duplex formation free energy ΔG50: `AATGTCGAACAGCAATT` -11.2

So what's the measured duplex formation free energy ΔG50 for this one? `TGCCATGTTGAAAACC` -10.6

Fill in the blank: the reported duplex formation free energy ΔG50 of `GCTGAACTAACCACCA` is ____. -10.9

Look up duplex formation free energy ΔG50 for this sequence: `TTAACCTGCAATGGATC` -10.8

Recorded duplex formation free energy ΔG50 for `TCTACACCGCGA` , please? -9.65

Field request: duplex formation free energy ΔG50 | item: `AGCTGAGCCTGCCGCC` -13

In the following, a different sequence is considered.
Value lookup for duplex formation free energy ΔG50; key = `CCCAGGCCTCGGATTTA` -12.4

* * *

Test: duplex formation free energy ΔG50 (Van't Hoff fit of HRM Tm); higher = less stable duplex
Details: temperature for dG: 50 °C; NaCl: 500 mM (unadjusted); backbone: PO-PO (both strands phosphodiester DNA)
Here, each record is paired with measured duplex formation free energy ΔG50 data.
Write the answer as a number in kcal/mol, unit excluded.

What value of measured duplex formation free energy ΔG50 is listed for `AACGAATGTCAGCAATT` ? -12.5

Form field: reported duplex formation free energy ΔG50 of `ACGGGTCGTTCCGTG` -13.1

Consider the sequence shown here: `GTGGTACAAATGCGACC` What is its recorded duplex formation free energy ΔG50? -13.9

Given the sequence `CGACATGTATGGCACAG` , what is its reported duplex formation free energy ΔG50? -13.2

Report duplex formation free energy ΔG50 for `AATGTCGAACAGCAATT` please. -12.5

So what does the record say about duplex formation free energy ΔG50 for `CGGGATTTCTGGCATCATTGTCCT` ? -19

* * *

Assay: duplex melting temperature (HRM, EvaGreen); higher = more stable duplex
Settings: duplex concentration 7.5 µM; backbone: PO-PO (both strands phosphodiester DNA)
# key: entry, value: duplex melting temperature
Supply the numeric figure in °C, leaving out any unit text.

Below: 8 sequences and their reported duplex melting temperature.
Given the entry `GTGGTACAAATGCGACC` , report its measured duplex melting temperature. 71.3

Record request: duplex melting temperature value, item `TAGACGCGGCCTCTTTCC` 77.7

duplex melting temperature for `TATTCTGCCAATGGAAC` ? 66.8

Which duplex melting temperature is listed for `AGCACGGTGGTACAACA` ? 71.2

Need duplex melting temperature of `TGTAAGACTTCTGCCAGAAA` , thanks. 72.7

Returns the measured duplex melting temperature for the input sequence. Input: `TCTACACCGCGA` 64.4

Which duplex melting temperature value is on record for `CGTGCAGCACTACTTG` ? 71.2

# duplex melting temperature lookup, item `AACGAATGTCAGCAATT` 68.1

Next:
What measured duplex melting temperature goes with `TTCGCGGTCTCCATTA` ? 70.4

Suppose we examine the sequence `CTACCAGCGGCGCCGTT` ; what duplex melting temperature value has been reported? 81.8

Quick check: duplex melting temperature of `ATAACTTACTCTCGCCT` ? 68.4

State the recorded duplex melting temperature for this entry: `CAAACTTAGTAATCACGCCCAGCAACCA` 81.4

* * *

Test: duplex melting temperature (HRM, EvaGreen); higher = more stable duplex
Details: duplex concentration 7.5 µM; backbone: PO-PO (both strands phosphodiester DNA)
Measurement type: duplex melting temperature (°C)
Report the value in °C with no unit label.

Consider the sequence shown here: `CGACATGTATGGCACAG` What is its recorded duplex melting temperature? 71

What duplex melting temperature value was documented for this sequence, `CTAAACTGTTATAGCCGG` ? 68.8

State the recorded duplex melting temperature for this entry: `GAGCAGAAGGGGTTGT` 69.5

The record that follows has no duplex melting temperature shown yet.
Quick one: duplex melting temperature for `GTGAGCAGAAGGGGTT` ? 70.2

* * *

Measured duplex melting temperature values are reported for all entries that follow.
Test: duplex melting temperature (HRM, EvaGreen); higher = more stable duplex
Settings: duplex concentration 1 µM; backbone: PS-PO (listed strand fully phosphorothioate, complement phosphodiester)

Suppose we examine the sequence `AACGAATGTCAGCAATT` ; what duplex melting temperature value has been reported? 55.7 °C

What value of duplex melting temperature has been reported for the following sequence? `GTCATTGTGCTTTTGC` 49.8 °C

Fill in: duplex melting temperature of `TATTCTGCCAATGGAAC` is ___ 52.9 °C

I'd like to know its duplex melting temperature. The sequence in question is `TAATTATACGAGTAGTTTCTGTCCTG` 62.1 °C

What does the record list as duplex melting temperature for `CTACCAGCGGCGCCGTT` ? 68.2 °C

duplex melting temperature for `TCTCGCGGTTCCATTA` ? 56.3 °C

# duplex melting temperature lookup, item `AGCTGAGCCTGCCGCC` 65.9 °C

// lookup duplex melting temperature for `AATGAGGAGTGAAATGG` 54.3 °C

Which duplex melting temperature is reported for this sequence? `GCAGGAGCCGCGACCTG` 68.4 °C

Return reported duplex melting temperature; argument: `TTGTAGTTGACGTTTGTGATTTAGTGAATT` 66.2 °C

* * *

Assay: duplex melting temperature (HRM, EvaGreen); higher = more stable duplex
Conditions: duplex concentration 7.5 µM; backbone: PS-PO (listed strand fully phosphorothioate, complement phosphodiester)
Measurement type: duplex melting temperature (°C)
Response body: numeric value in °C, unit text excluded.

Dear colleague, I am looking for the recorded duplex melting temperature of the following sequence: `CTTTTGTGCGGGTAGC` 62.9

Entry under review: `AGAGCGCCCTGCTGCC` . Reported duplex melting temperature? 72.7

---
// returns reported duplex melting temperature for input `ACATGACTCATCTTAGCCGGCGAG` 74.2

* * *

Assay: duplex melting temperature (HRM, EvaGreen); higher = more stable duplex
Settings: duplex concentration 5 µM; backbone: PO-PO (both strands phosphodiester DNA)
Measurement type: duplex melting temperature (°C)
The response must be a number in °C with no trailing unit.

Consider the worked cases shown below.
For `CGTGCAGCACTACTTG` , what is its reported duplex melting temperature? 69.8

Return reported duplex melting temperature; argument: `CTCGGAGGCCCCATTTA` 72.3

Could you tell me which duplex melting temperature is on file for `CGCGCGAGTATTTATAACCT` ? 73.4

I'd like to know its duplex melting temperature. The sequence in question is `CTGTAAGGCGATATGTT` 66.4

Reported duplex melting temperature, sequence `CGTGTGGATAATTAGCT` : ____ 65.9

Value lookup for duplex melting temperature; key = `GAACCGTTGATGATCTC` 67.2

What value of duplex melting temperature has been reported for the following sequence? `GTGGTACAAATGCGACC` 70.3

Query (sequence): `TGTCGCACCCTACTA` ; field requested: duplex melting temperature 68.2

More entries:
Would you mind telling me what duplex melting temperature value was observed for `GCCCGAGCATGACTGCG` ? 77

What value of duplex melting temperature has been reported for the following sequence? `CTAAACTGTTATAGCCGG` 67.8

Item under review: `ACTGTATCGCCCTA` . Reported duplex melting temperature? 65.3

* * *

Assay: duplex melting temperature (HRM, EvaGreen); higher = more stable duplex
Settings: duplex concentration 15 µM; backbone: PS-PS (both strands fully phosphorothioate)
Label Condition met when duplex melting temperature is at or above 60 °C; anything below gets Condition not met.

Here are 5 sequences together with their reported answers.
# check: duplex melting temperature of `ACTGTATCGCCCTA` is greater than or equal to 60 °C Condition not met

Evaluate `CTGTAAGGCGATATGTT` : duplex melting temperature at minimum 60 °C? Condition not met

Could you verify whether the entry `TTGAAAACCCATGTGC` shows duplex melting temperature of no less than 60 °C? Condition not met

# bool: duplex melting temperature of `GAGGCAGCCGCGACCTG` >= 60 °C Condition met

For this sequence, is measured duplex melting temperature 60 °C or higher? `GGTGGCGTTCTT` Condition not met

Next:
Test whether the sequence `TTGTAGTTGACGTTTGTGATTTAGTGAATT` records duplex melting temperature of 60 °C or higher. Condition met

Confirm if duplex melting temperature reported for the sequence `GAACCGTTGATGATCTC` is 60 °C or above. Condition not met

Item `GCTGTGAAACAATGTAG` with duplex melting temperature of 60 °C or above? Condition not met

Check this sequence for duplex melting temperature at or above 60 °C: `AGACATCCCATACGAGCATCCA` Condition met

Please indicate if the recorded duplex melting temperature for `TATTCTGCCAATGGAAC` meets or exceeds 60 °C. Condition not met

Would you say `CGGTGCTTTTGGTAGC` shows duplex melting temperature at minimum 60 °C? Condition not met

API: above_or_equal(metric=duplex melting temperature, cutoff=60 °C) for item `TAGACGCGGCCTCTTTCC` Condition met
